Test: qHTS for Inhibitors of human tyrosyl-DNA phosphodiesterase 1 (TDP1): qHTS in cells in presence of CPT; further: nearly all actives have a fitted effect of over 55% in size
Details: chicken DT40 Tdp1-/-;hTDP1 cells + 20 nM CPT, ATP luminescence, 48 h; series mostly up to 46.2 µM
The whole screen tested about 420,000 compounds, of which about 50,000 (12%) were called active. About 26% were inconclusive and are not listed. The call rests on the fitted dose curve; in most records, active means well fitted inhibition curve with a large enough effect; inconclusive means small, poorly fitted or top-dose-only effect; inactive means flat fitted curve, though single readings scatter. This excerpt belongs to a sample that is enriched for actives.
Labels: active, inactive

>>> print(df.to_string())
                                    compound  discrete_label
 0     CCn1c(COc2ccccc2)nnc1SCC(=O)NCc1ccco1        inactive
 1  Cc1cc(C)c2cc(CN(Cc3cccs3)Cc3nnnn3CC3CCCO3)c(=O)[nH]c2c1 (stereo unspecified)          active
 2  Cc1cccc2cc(CN(Cc3cccs3)C(c3nnnn3C3CCCC3)C(C)C)c(=O)[nH]c12 (stereo unspecified)        inactive
 3  CCOC(=O)c1sc(NC(=O)C(CC)Sc2nccn2C)nc1C (stereo unspecified)        inactive
 4   CCCN(Cc1cc2cccc(C)c2[nH]c1=O)S(C)(=O)=O        inactive
 5           CCn1c2ccccc2c2nnc(SCC(=O)O)nc21        inactive
 6         Cc1n[nH]c(=O)c2c1nnn2Cc1ccc(F)cc1        inactive
 7     c1ccc(CCn2nnnc2CN2CCN(C3CCCC3)CC2)cc1        inactive
 8  C=CCn1c2ccccc2c2nnc(SC(CC)C(=O)Nc3nc(C)c(C(=O)OCC)s3)nc21 (stereo unspecified)          active
 9  Cn1c2ccccc2c(=O)c2c(=O)n(Cc3ccco3)c(COc3ccccc3)nc21          active
10  Cc1cccc2cc(CN(C(=O)c3cccs3)c3ccccc3)c(=O)[nH]c12        inactive
